Source: paper PMC4226810

# EXPERIMENT SUMMARY: Plasma pharmacokinetics after oral administration in MOLM13 xenograft mice
# Assay type: in vivo, mouse
# CONDITION PARAMETERS: CrTac:NCR-Foxn1^nu nude, mouse, plasma, oral
PARAMETER MEASURED: k el

> print(dat)
                         structure.notation  value.measured
1  CC(C)(C)c1cc(NC(=O)Nc2ccc(-c3cn4c(n3)sc3cc(OCCN5CCOCC5)ccc34)cc2)no1    5.31e-05 s⁻¹

* * *

Reported Km values are given for each entry in this list.
# EXPERIMENT SUMMARY: Plasma pharmacokinetics after oral administration in MOLM13 xenograft mice
# Assay type: in vivo, mouse
# CONDITION PARAMETERS: CrTac:NCR-Foxn1nu nude, mouse, plasma, oral
PARAMETER MEASURED: Km (µM)

> print(dat)
                                   compound  parameter.measured  value.measured
1  CNC(=O)c1cc(Oc2ccc(NC(=O)Nc3ccc(Cl)c(C(F)(F)F)c3)cc2)ccn1 [sorafenib]                  Km         0.00985
2  C[C@H]1CC[C@H](n2c3cnccc3c3cnc(Nc4ccc5c(n4)CCN(C(=O)CO)C5)nc32)CC1 [AMG925]                  Km          0.0945

* * *

# EXPERIMENT SUMMARY: Fraction unbound by modified ultra-filtration method
# Type: in vitro ADME
# CONDITION PARAMETERS: plasma
PARAMETER MEASURED: fraction unbound

> print(dat)
                                   compound  value.measured
1  CC(C)(C)c1cc(NC(=O)Nc2ccc(-c3cn4c(n3)sc3cc(OCCN5CCOCC5)ccc34)cc2)no1 [AC220, quizartinib]          0.0107
